test_target: adenosine A3 receptor (Homo sapiens)
Sequence (P0DMS8 whole entry): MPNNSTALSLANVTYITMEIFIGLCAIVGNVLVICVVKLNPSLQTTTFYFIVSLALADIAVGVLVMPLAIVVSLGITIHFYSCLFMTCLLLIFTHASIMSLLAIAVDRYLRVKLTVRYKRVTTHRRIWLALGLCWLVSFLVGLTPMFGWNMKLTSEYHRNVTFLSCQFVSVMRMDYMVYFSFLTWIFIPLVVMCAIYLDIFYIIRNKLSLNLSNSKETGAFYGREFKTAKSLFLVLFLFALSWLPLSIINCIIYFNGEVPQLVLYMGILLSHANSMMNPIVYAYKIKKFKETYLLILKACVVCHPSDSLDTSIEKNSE
method_notes: Radioligand competition binding assay, adenosine A3 receptor ([3H]-NECA)
Parameters: dose or concentration left out as unconfirmed
run_conditions: PEI = (inhibition, ratio) / (MW, kD)
Catalogue of PEI (potency efficiency index), ligand efficiency for A3 receptor values
observed_property: PEI (potency efficiency index), ligand efficiency for A3 receptor

molecule | reading
Nc1ncnc2c1ncn2[C@@H]1O[C@H](CO)[C@@H](O)[C@H]1OCOCCCc1ccccc1 [Compound 12] | 1.61
Nc1ncnc2c1ncn2[C@H]1C[C@H](O)[C@@H](CO)O1 [2′-deoxyadenosine, reference compound] | 0.20
CC[C@@H]1Cn2c(c3nc(-c4cc(Cl)cc(Cl)c4Cl)nc-3n(C)c2=O)N1.Cl [PSB 10 hydrochloride, reference compound] | 2.51
OC[C@H]1O[C@@H](n2cnc3c(NCCCc4ccccc4)ncnc32)[C@H](O)[C@@H]1O [Compound 4] | 2.54
